Task for the reader: assign each of the following compounds its reported viability, T/C.
- System: 883617-216-R-J1-PDC complex spheroid viability;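 note: spheroids exposed to compounds for seven days before readout; 100% = DMSO vehicle control viability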
- MEASUREMENT PROTOCOL: Anticancer human tumor 883617-216-R-J1-PDC patient-derived bladder carcinoma cell line growth inhibition [POLQ]
- SETTINGS: second compound 10 µM; first compound 0.0316 µM; stronger effect = lower value
Numbers only, in %.

>  <COMPOUND>
COc1cc(C2c3cc4c(cc3C(OC3OC5COC(C)OC5C(O)C3O)C3COC(=O)C23)OCO4)cc(OC)c1O (stereo not given) + Nc1ccc(C#CCN(C(=O)Cc2ncc(C(F)(F)F)cc2C(F)(F)F)c2ccc(F)cc2)nn1

>  <viability, T/C (%)>
101

$$$$
>  <COMPOUND>
COc1cccc(OCCCN)c1-c1cc(Nc2cnc(C#N)cn2)n[nH]1 + Cc1cccc(N(C)C(=O)C2C(O)CCN2c2nc(C)cc(C(F)(F)F)c2C#N)c1

>  <viability, T/C (%)>
65.8

$$$$

Batch request: viability, T/C per item, same order as input.
1. CC1COCCN1c1cc(-c2ccnn2C)c2ccnc(-c3ccn[nH]3)c2n1 (stereo not given) + Cc1cccc(N(C)C(=O)C2C(O)CCN2c2nc(C)cc(C(F)(F)F)c2C#N)c1
2. COc1cccc2c1C(=O)c1c(O)c3c(c(O)c1C2=O)CC(O)(C(=O)CO)CC3OC1CC(N)C(O)C(C)O1 (stereo not given) + Nc1ccc(C#CCN(C(=O)Cc2ncc(C(F)(F)F)cc2C(F)(F)F)c2ccc(F)cc2)nn1
3. CC1COCCN1c1cc(C2(S(C)(=N)=O)CC2)nc(-c2ccnc3[nH]ccc23)n1 (stereo not given) + Cc1cccc(N(C)C(=O)C2C(O)CCN2c2nc(C)cc(C(F)(F)F)c2C#N)c1

[96.7, 81.8, 119]

Source: PubChem BioAssay AID1963833
